EXPERIMENTAL_TARGET: hM1 (Homo sapiens (Human), UniProt P11229)
Sequence (P11229 whole entry): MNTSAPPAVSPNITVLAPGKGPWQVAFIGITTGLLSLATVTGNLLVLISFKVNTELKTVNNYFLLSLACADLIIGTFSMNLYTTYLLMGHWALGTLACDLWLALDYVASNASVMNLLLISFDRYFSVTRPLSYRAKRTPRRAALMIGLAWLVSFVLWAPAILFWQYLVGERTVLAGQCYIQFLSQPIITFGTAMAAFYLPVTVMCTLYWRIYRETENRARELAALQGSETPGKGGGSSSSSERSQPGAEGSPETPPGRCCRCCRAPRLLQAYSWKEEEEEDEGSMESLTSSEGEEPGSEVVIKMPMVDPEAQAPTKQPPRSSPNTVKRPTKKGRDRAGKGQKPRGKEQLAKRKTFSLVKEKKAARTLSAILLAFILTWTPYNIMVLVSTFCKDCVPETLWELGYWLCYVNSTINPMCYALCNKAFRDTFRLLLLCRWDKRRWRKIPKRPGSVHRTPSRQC
ASSAY_TEXT: M1 PAM Assay (FLIPR intracellular calcium, CHO human M1 cells)
EXPERIMENTAL_PARAMETERS: positive allosteric modulation in presence of EC20 of acetylcholine, first value of cell
So basically, if EC50 comes in under 400 nM it's Y, and if it's 400 nM or more it's N.

{"MOLECULE": "N#CC1(c2ccccn2)CCN(Cc2cc(C(=O)N[C@H]3CCCC[C@@H]3O)c(F)c3ccccc23)CC1", "LABEL_VALUE": "Y"}
{"MOLECULE": "O=C(N[C@H]1CCC[C@@H]1O)c1cc(Cc2ccc(Cl)nc2)c2ccccc2c1F", "LABEL_VALUE": "Y"}
{"MOLECULE": "Cn1cc(-c2ccc(Cc3cc(C(=O)N[C@@H]4CCOC[C@H]4O)c(F)c4ccccc34)cn2)cn1", "LABEL_VALUE": "Y"}
{"MOLECULE": "C[C@]1(O)CCCC[C@@H]1NC(=O)c1cc(Cc2ccc(Cl)nc2)c2ccccc2c1F (racemic)", "LABEL_VALUE": "N"}
{"MOLECULE": "Cc1ccc(Cc2cc(C(=O)N[C@H]3CCCC[C@@H]3O)c(F)c3ccccc23)cn1 (racemic)", "LABEL_VALUE": "Y"}
{"MOLECULE": "Cn1cc(-c2ccc(Cc3cc(C(=O)N[C@H]4CCCC[C@@]4(C)O)c(F)c4ccccc34)cn2)cn1 (racemic)", "LABEL_VALUE": "Y"}
{"MOLECULE": "O=C(N[C@H]1CCOC[C@@H]1O)c1cc(Cc2ccc(Cl)nc2)c2ccccc2c1F (racemic)", "LABEL_VALUE": "Y"}
{"MOLECULE": "O=C(N[C@H]1CCOC[C@@H]1O)c1cc(Cc2ccc(Cl)cc2)c2ccccc2c1F (racemic)", "LABEL_VALUE": "Y"}
{"MOLECULE": "O=C(N[C@H]1CCCC[C@@H]1O)c1cc(Cc2ccc(Cl)nc2)c2ccccc2c1F [Example 3]", "LABEL_VALUE": "Y"}
{"MOLECULE": "O=C(N[C@H]1CCCC[C@H]1O)c1cc(Cc2ccc(Cl)nc2)c2ccccc2c1F (racemic)", "LABEL_VALUE": "N"}
{"MOLECULE": "C[C@@]1(O)CCCC[C@@H]1NC(=O)c1cc(Cc2ccc(Cl)nc2)c2ccccc2c1F (racemic)", "LABEL_VALUE": "N"}

###

EXPERIMENTAL_TARGET: hM1 (Homo sapiens (Human))
ASSAY_TEXT: M1 PAM Assay (FLIPR intracellular calcium, CHO human M1 cells)
EXPERIMENTAL_PARAMETERS: positive allosteric modulation in presence of EC20 of acetylcholine, first value of cell
Procedure: The assay study the effect of several concentrations of test compounds on basal or acetylcholine-stimulated Ca^2+ levels using FLIPR. CHO human M1 are plated the day before the experiments at 2×10^5 cells/ml in PDL BioCoat 96 well black/clear plate (Becton 35 4640). […] A signal test to check background fluorescence and basal fluorescence signal is performed. […]
ATTRIBUTE_MEASURED: EC50

{"MOLECULE": "O=C(N[C@H]1CCOC[C@@H]1O)c1cc(Cc2ccc(OC(F)(F)F)cc2)c2ccccc2c1F (racemic)", "OBS_VALUE": "541 nM"}
{"MOLECULE": "N#Cc1ccc(Cc2cc(C(=O)N[C@H]3CCOC[C@@H]3O)c(F)c3ccccc23)cc1 (racemic)", "OBS_VALUE": "67 nM"}
{"MOLECULE": "Cc1ccc(Cc2cc(C(=O)N[C@H]3CCOC[C@@H]3O)c(F)c3ccccc23)cc1 (racemic)", "OBS_VALUE": "154 nM"}
{"MOLECULE": "Cn1cc(-c2ccc(Cc3cc(C(=O)N[C@H]4COCC[C@@H]4O)c(F)c4ccccc34)cn2)cn1", "OBS_VALUE": "33 nM"}
{"MOLECULE": "Cn1cc(-c2ccc(Cc3cc(C(=O)N[C@H]4CCOC[C@@H]4O)c(F)c4ccccc34)cn2)cn1 (racemic) [Example 18]", "OBS_VALUE": "3 nM"}
{"MOLECULE": "O=C(N[C@H]1COCC[C@@H]1O)c1cc(Cc2ccc(Cl)nc2)c2ccccc2c1F", "OBS_VALUE": "428 nM"}
{"MOLECULE": "Cn1cc(-c2ccc(Cc3cc(C(=O)N[C@H]4CCOC[C@@H]4O)c(F)c4ccccc34)c(F)c2)cn1 (racemic)", "OBS_VALUE": "14 nM"}
{"MOLECULE": "O=C(N[C@H]1CCCC[C@@H]1O)c1cc(Cc2ccc(Cl)nc2)c2ccccc2c1F (racemic) [Example 1]", "OBS_VALUE": "159 nM"}
{"MOLECULE": "Cn1cc(-c2ccc(Cc3cc(C(=O)N[C@H]4CCOC[C@@H]4O)c(F)c4ccccc34)cn2)cn1 [Example 20]", "OBS_VALUE": "2 nM"}
{"MOLECULE": "Cn1cc(-c2ccc(Cc3cc(C(=O)N[C@H]4CCOC[C@@H]4O)c(F)c4ccccc34)cc2)cn1 (racemic)", "OBS_VALUE": "11 nM"}
{"MOLECULE": "O=C(N[C@H]1CCCC[C@@H]1O)c1cc(Cc2ccc(C3CC3)nc2)c2ccccc2c1F", "OBS_VALUE": "230 nM"}
{"MOLECULE": "O=C(N[C@@H]1CCOC[C@H]1O)c1cc(Cc2ccc(Cl)nc2)c2ccccc2c1F (stereo in doubt)", "OBS_VALUE": "27 nM"}
{"MOLECULE": "O=C(N[C@H]1CCOC[C@@H]1O)c1cc(Cc2ccccc2)c2ccccc2c1F (racemic)", "OBS_VALUE": "197 nM"}
{"MOLECULE": "O=C(N[C@H]1CCC[C@H]1O)c1cc(Cc2ccc(Cl)nc2)c2ccccc2c1F", "OBS_VALUE": "575 nM"}
{"MOLECULE": "Cn1cc(-c2ccc(Cc3cc(C(=O)N[C@H]4CCCC[C@@H]4O)c(F)c4ccccc34)cn2)cn1 (racemic)", "OBS_VALUE": "10 nM"}
